Hey, just so you know, these numbers are from patent US20240409645A1.

- assayTarget: T1, human IL-2Rβ (human, UniProt P14784 27-240, limits assumed)
- T1 construct: Recombinant protein, coated (ELISA) or immobilised on CM5 (SPR); also called hu IL-2R; interleukin 2 receptor β-chain
- T1 sequence: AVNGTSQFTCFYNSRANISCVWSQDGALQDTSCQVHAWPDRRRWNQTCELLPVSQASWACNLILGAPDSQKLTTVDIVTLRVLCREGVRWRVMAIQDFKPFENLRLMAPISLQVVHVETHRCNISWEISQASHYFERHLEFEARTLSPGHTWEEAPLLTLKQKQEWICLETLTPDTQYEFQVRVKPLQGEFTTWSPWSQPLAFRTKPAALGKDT
- assayProtocol: P.E. binding ELISA on coated protein

- binder: "FJ1427_P035MP02H11 (VHH, soluble VHH in periplasmic extract; also called clone nr) VHH: EVQLVESGGGLVQAGGSLRLSCAASGRTFSTTEMGWFRQAPGKEREFVAAITWTGRGTMYAESVEGRFTISRENAKNMVYLQMNSLKPEDTAIYYCAAARRGRAAVRSEGGYDFWGQGTQVAVSS"
  P.E. binding ELISA OD: "0.795 OD450 nm"
- binder: "FJ1427_P035MP03H04 (VHH, soluble VHH in periplasmic extract; also called clone nr) VHH: QVQLVESGGGLVQAGGSLALSCAASGGTFSSYAMGWFRQAPGKEREFVAATTRGGGRTMYAVSTEGRFSCSRDNAKNTVYLLIKNLKPEDTAVYYCAARTSYYDGTYYPASSDFDIWGQGTQVTVSS"
  P.E. binding ELISA OD: "0.262 OD450 nm"
